- tested_system: Histone acetyltransferase KAT2B (Homo sapiens)
- protocol_description: Binding affinity to human recombinant His6-tagged PCAF (G715 to D831 residues) expressed in Escherichia coli BL21 (DE3) cells assessed as change in melting temperature at 200 uM incubated for 30 mins by SYPRO orange dye based thermal shift assay
assay_metric: ΔTm (°C)
State the answer as a number, implicitly in °C.

Below, each entry is followed by its recorded ΔTm result.
smiles_record: COc1cc2onc(C)c2cc1NS(=O)(=O)c1cc(Br)ccc1OC
assay_metric: ΔTm
reading: 2.7
//
smiles_record: Cc1noc2c(Br)cc(-c3nc4ccc(N5CCOCC5)cc4n3CC3CCCCC3)cc12
assay_metric: ΔTm
reading: -0.6
//
smiles_record: CNc1cc2onc(C)c2cc1NS(=O)(=O)c1cc(Br)ccc1OC
assay_metric: ΔTm
reading: 2.6

Ask: # get_value(readout= ΔTm, system= Histone acetyltransferase KAT2B (Homo sapiens)) for Cc1noc2ccc(-c3nc4ccc(N5CCOC[C@@H]5C)cc4n3CC3CCCCC3)cc12
Reply: -0.6

====

Listing: ΔTm of selected compounds
- tested_system: Bromodomain testis-specific protein (Homo sapiens)
- protocol_description: Binding affinity to human recombinant His6-tagged BRDT bromodomain 1 (N21 to E137 residues) expressed in Escherichia coli BL21 (DE3) cells assessed as change in melting temperature at 200 uM incubated for 30 mins by SYPRO orange dye based thermal shift assay
State the answer as a number, implicitly in °C.

Below, each entry is followed by its recorded ΔTm result.
smiles_record: Cc1noc2c(Br)cc(-c3nc4ccc(N5CCOCC5)cc4n3CC3CCCCC3)cc12
reading: 4.2

smiles_record: Cc1noc2ccc(-c3nc4ccc(N5CCOC[C@@H]5C)cc4n3CC3CCCCC3)cc12
reading: 3.6

smiles_record: COc1cc2onc(C)c2cc1NS(=O)(=O)c1cc(Br)ccc1OC
reading: 5.6

Please turn your attention to the following entry.
Ask: What does the record list as ΔTm for CNc1cc2onc(C)c2cc1NS(=O)(=O)c1cc(Br)ccc1OC ?
Reply: 5.1

====

- tested_system: Bromodomain-containing protein 9 (Homo sapiens)
- Sequence (whole entry): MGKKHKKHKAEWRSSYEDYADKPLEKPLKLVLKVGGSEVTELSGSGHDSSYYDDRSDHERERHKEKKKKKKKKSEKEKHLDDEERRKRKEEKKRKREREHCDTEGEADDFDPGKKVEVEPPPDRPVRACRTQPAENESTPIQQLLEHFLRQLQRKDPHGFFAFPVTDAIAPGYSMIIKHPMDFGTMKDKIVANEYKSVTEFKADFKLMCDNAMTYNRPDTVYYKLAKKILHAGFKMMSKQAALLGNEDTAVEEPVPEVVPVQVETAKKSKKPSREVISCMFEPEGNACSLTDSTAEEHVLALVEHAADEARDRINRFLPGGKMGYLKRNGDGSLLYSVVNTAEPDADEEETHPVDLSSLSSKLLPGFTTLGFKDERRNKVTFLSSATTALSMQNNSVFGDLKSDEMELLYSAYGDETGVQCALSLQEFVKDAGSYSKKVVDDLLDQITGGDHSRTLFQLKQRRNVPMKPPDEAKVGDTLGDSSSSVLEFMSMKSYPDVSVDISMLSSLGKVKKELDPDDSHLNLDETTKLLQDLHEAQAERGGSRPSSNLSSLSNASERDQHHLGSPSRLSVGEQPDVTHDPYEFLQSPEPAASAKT
- protocol_description: Binding affinity to human recombinant His6-tagged BRD9 (L14 to Q134 residues) expressed in Escherichia coli BL21 (DE3) cells assessed as change in melting temperature at 200 uM incubated for 30 mins by SYPRO orange dye based thermal shift assay
assay_metric: ΔTm (°C)
State the answer as a number, implicitly in °C.

Below, each entry is followed by its recorded ΔTm result.
smiles_record: Cc1noc2ccc(-c3nc4ccc(N5CCOC[C@@H]5C)cc4n3CC3CCCCC3)cc12
unit_abbrev: °C
reading: -0.8
--
smiles_record: COc1cc2onc(C)c2cc1NS(=O)(=O)c1cc(Br)ccc1OC
unit_abbrev: °C
reading: -0.9
--
smiles_record: CNc1cc2onc(C)c2cc1NS(=O)(=O)c1cc(Br)ccc1OC
unit_abbrev: °C
reading: -0.8

Please turn your attention to the following entry.
Ask: # get_value(readout= ΔTm, system= Bromodomain-containing protein 9 (Homo sapiens)) for Cc1noc2c(Br)cc(-c3nc4ccc(N5CCOCC5)cc4n3CC3CCCCC3)cc12
Reply: -0.9

====

- System: NCI-H1975
- protocol_description: Antiproliferative activity against human NCI-H1975 cells assessed as reduction in cell viability incubated for 72 hrs by cell-titer glo assay
- Format: functional, cell-based
- experimental_setup: NCI-H1975, 72 h
Listing: IC50 of selected molecules

smiles_record: Cc1noc2ccc(-c3nc4ccc(N5CCOC[C@@H]5C)cc4n3CC3CCCCC3)cc12
IC50: > 5000 nM

Ask: What does the record list as IC50 for COc1cc2onc(C)c2cc1NS(=O)(=O)c1cc(Br)ccc1OC ?
Reply: 2500 nM

====

- tested_system: Bromodomain-containing protein 4 (Homo sapiens)
- protocol_description: Binding affinity to human recombinant His6-tagged BRD4 bromodomain 1 (N44 to E168 residues) expressed in Escherichia coli BL21 (DE3) cells assessed as change in entropy incubated for 1 hr by isothermal titration calorimetry
Listing: TdeltaS of selected compounds
State the answer as a number, implicitly in kcal/mol.

Below, each entry is followed by its recorded TdeltaS result.
smiles_record: Cc1noc2ccc(-c3nc4ccc(N5CCOC[C@@H]5C)cc4n3CC3CCCCC3)cc12
tested_system: Bromodomain-containing protein 4 (Homo sapiens)
TdeltaS (kcal/mol): -2.2

smiles_record: Cc1noc2c(Br)cc(-c3nc4ccc(N5CCOCC5)cc4n3CC3CCCCC3)cc12
tested_system: Bromodomain-containing protein 4 (Homo sapiens)
TdeltaS (kcal/mol): -1.4

Ask: # get_value(readout= TdeltaS, system= Bromodomain-containing protein 4 (Homo sapiens)) for COc1cc2onc(C)c2cc1NS(=O)(=O)c1cc(Br)ccc1OC
Reply: -2.5

Ask: Follow-up item: CNc1cc2onc(C)c2cc1NS(=O)(=O)c1cc(Br)ccc1OC
Reply: -6

====

- tested_system: Histone-lysine N-methyltransferase ASH1L (Homo sapiens) (UniProt Q9NR48)
- protocol_description: Binding affinity to human recombinant His6-tagged ASH1L (E2433 to E2564 residues) expressed in Escherichia coli BL21 (DE3) cells assessed as change in melting temperature at 200 uM incubated for 30 mins by SYPRO orange dye based thermal shift assay
Listing: ΔTm of selected compounds
State the answer as a number, implicitly in °C.

Ask: What does the record list as ΔTm for CNc1cc2onc(C)c2cc1NS(=O)(=O)c1cc(Br)ccc1OC ?
Reply: -0.1

Ask: Follow-up item: Cc1noc2ccc(-c3nc4ccc(N5CCOC[C@@H]5C)cc4n3CC3CCCCC3)cc12
Reply: -0.5

Ask: Follow-up item: Cc1noc2c(Br)cc(-c3nc4ccc(N5CCOCC5)cc4n3CC3CCCCC3)cc12
Reply: -0.9

Ask: Follow-up item: COc1cc2onc(C)c2cc1NS(=O)(=O)c1cc(Br)ccc1OC
Reply: 0.3

====

Listing: Cmax of selected compounds
- protocol_description: Cmax in Sprague-Dawley rat at 2 mg/kg, iv by LC/MS analysis
- Format: ADME, organism-based
- Set-up: route intravenous, dose 2 mg/kg
- experimental_setup: in vivo
State the answer as a number, implicitly in ng/mL.

smiles_record: COc1cc2onc(C)c2cc1NS(=O)(=O)c1cc(Br)ccc1OC
Cmax [ng/mL]: 1390

Ask: What does the record list as Cmax for Cc1noc2ccc(-c3nc4ccc(N5CCOC[C@@H]5C)cc4n3CC3CCCCC3)cc12 ?
Reply: 807

====

Listing: ΔTm of selected molecules
- tested_system: Bromodomain-containing protein 4 (Homo sapiens, UniProt O60885)
- protocol_description: Binding affinity to human recombinant His6-tagged BRD4 bromodomain 1 (N44 to E168 residues) expressed in Escherichia coli BL21 (DE3) cells assessed as change in melting temperature at 200 uM incubated for 30 mins by SYPRO orange dye based thermal shift assay
State the answer as a number, implicitly in °C.

smiles_record: Cc1noc2ccc(-c3nc4ccc(N5CCOCC5)cc4n3CC3CCCCC3)cc12
unit_abbrev: °C
reading: 5.4
--
smiles_record: COc1ccc(Br)cc1S(=O)(=O)Nc1cc2c(C)noc2cc1OCC(=O)O
unit_abbrev: °C
reading: 6.2
--
smiles_record: COc1ccc(Br)cc1S(=O)(=O)Nc1cc2c(C)noc2cc1O
unit_abbrev: °C
reading: 9.2
--
smiles_record: CCCn1c(-c2cc(Br)c3onc(C)c3c2)nc2ccc(N3CCOCC3)cc21
unit_abbrev: °C
reading: 6.2
--
smiles_record: Cc1noc2ccc(-c3nc4ccc(N5CCOC[C@@H]5C)cc4n3CC3CCCCC3)cc12
unit_abbrev: °C
reading: 9.9

Ask: What does the record list as ΔTm for COc1ccc(Cl)cc1S(=O)(=O)Nc1cc2c(C)noc2cc1C ?
Reply: 6.5
